# target.under.test: CAIX (UniProt Q16790 38-414)
Each record here notes measured Kd.

Some solved entries appear below for comparison.
[
  {
    "binder": "G125 (antibody, V domains shown) VH: EVQLVESGGGVVQPGRSLRLSCAASGFTFSSYGMHWVRQAPGKGLEWVSAISGSGGSTYYADSVKGRFTISRDNAKNTLYLQMNSLRAEDTAVYYCARAAVTGGFDPWGQGTLVTVSS VL: QPGLTQPPSVSVAPGQTARITCGGDNIGRKSVHWYQQRPGQAPILVIRDDRDRPSGIPERFSGSSSVNTATLIISRVEAGDEADYYCQVWDSSSKHYVFGPGTKVTALG",
    "Kd": "40.3 nM"
  },
  {
    "binder": "G9 (antibody, V domains shown) VH: QVQLQESGGGLVQPGGSLRLSCAASGFTFSSYAMSWVRQAPGKGLEWVSAISGSGGSTYYADSVKGRFTISRDNSKNTLYLQMNSLRAEDTAVYYCARSHSSGGFDYWGQGTLVTVSS VL: QSVLTQPPSVSGAPGQRVTISCTGSSSNIGRGYNVHWYQQLPGTAPKLLIYGNTNRPSGVPDRFSGSKSGTSASLAITGLQAEDEGDYYCQSYDSSLSAWVFGGGTKLTVLG",
    "Kd": "99.6 nM"
  },
  {
    "binder": "G10 (antibody, V domains shown) VH: QVQLVQSGGGLVQPGGSLRLSCAASGFPFSSYAMSWVRQAPGKGLEWVSAISANGGTTYYADSVKGRFTISRDNSKNTLYLQMNSLRAEDTAVYYCANNGNYRGAFDIWGQGTMVTVSS VL: QSVLTQPPSVSGAPGQRVTISCTGSSSNIGAGYDVHWYQQLPGTAPKLLIYGNSNRPSGVPDRFSGSKSGSSASLAITGLQAEDEAHYYCQSYDRSLSWVFGGGTKLTVLG",
    "Kd": "1.62 nM"
  }
]

Exercise: Bench note: what Kd did G57 (antibody, V domains shown) VH: QVQLVQSGGGVVQPGRSLRLSCAASGFTFSSYGMHWVRQAPGKGLEWVAVISYDGSNKYYADSVKGRFTISRDNSKNTLYLQMNSLRAEDTAVYYCAREAPYSSSLDAFDIWGQGTMVTVSS VL: QSVLTQPPSVSGAPGQRVTISCTGSSSNIGRGYNVHWYQQLPGTAPKLLIYGNSNRPSGVPDRFSGSSSGNTASLTITGAQAEDEADYYCHSRDNNGHHIFGGGTKLTVLS show?
Key: 4.25 nM
